Tested on: PYK2
Construct: gene PTK2B
Conditions: concentration: 1 μM, replicates: in singlicate; n = 1;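 further: KINOMEscan kinase panel screen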
testReadout: %Inh (%)

- molecule: "O=C(NCCNc1ccnc(Nc2ccc(F)cc2)n1)c1cc2ccccc2s1"
  resultUnit: "%"
  reportedValue: 29
- molecule: "Nc1nccc(-c2c(-c3ccc(F)cc3)ncn2C2CCN(CC(F)(F)F)CC2)n1"
  resultUnit: "%"
  reportedValue: 5
- molecule: "Fc1ccc(-c2nn3c(OCC(F)(F)F)cccc3c2-c2ccncc2)cc1"
  resultUnit: "%"
  reportedValue: 1
- molecule: "NS(=O)(=O)CCc1cccc(Nc2nccc(-c3c(-c4cccc(NC(=O)c5c(F)cccc5F)c4)nn4ccccc34)n2)c1"
  resultUnit: "%"
  reportedValue: 29
- molecule: "Fc1ccc(-c2ncn(CCCN3CCOCC3)c2-c2ccccn2)cc1"
  resultUnit: "%"
  reportedValue: 0
- molecule: "COCCNC(=O)c1ccc(-c2cc(C(=O)NC3CC3)cc(F)c2C)cc1"
  resultUnit: "%"
  reportedValue: 4
- molecule: "COc1cc2ncn(-c3cc(OCc4sccc4Cl)c(C(N)=O)s3)c2cc1OC"
  resultUnit: "%"
  reportedValue: 0
- molecule: "Cc1nnc(-c2ccc3ncc(-c4ccc(S(C)=O)cc4)n3c2)o1 (centres unmarked)"
  resultUnit: "%"
  reportedValue: 0
- molecule: "Cc1c(Cn2c(C)nn3c(=O)cc(N4CCOC(C)C4)nc23)cccc1C(F)(F)F (centres unmarked)"
  resultUnit: "%"
  reportedValue: 0
- molecule: "Cn1cc(-c2ccc3c(c2)CCN3C(=O)Cc2ccccc2Cl)c2c(N)ncnc21"
  resultUnit: "%"
  reportedValue: 38
- molecule: "N#Cc1ccc(-c2cc(-c3c[nH]nc3-c3ccccn3)ccn2)cc1"
  resultUnit: "%"
  reportedValue: 0

====

Test system: TRKA
Construct: gene NTRK1
Details: concentration: 1 μM, replicates: in singlicate; n = 1
testReadout: %Inh

- itemSmiles: "CC(C)Oc1ccc2c(-c3ccnc(Nc4ccc(N5CCN(C)CC5)cc4)n3)cnn2n1"
  testReadout: "%Inh"
  reportedValue: "54%"
- itemSmiles: "COCCNC(=O)c1ccc(-c2cc(C(=O)NC3CC3)cc(F)c2C)cc1"
  testReadout: "%Inh"
  reportedValue: "27%"
- itemSmiles: "O=C(Nc1n[nH]c2cc(-c3cccc(F)c3)ccc12)C1CC1"
  testReadout: "%Inh"
  reportedValue: "4%"
- itemSmiles: "Cl.Cl.Cl.Fc1ccc(-c2ncn(C3CCNCC3)c2-c2ccnc(Nc3ccccc3)n2)cc1"
  testReadout: "%Inh"
  reportedValue: "0%"
- itemSmiles: "CCc1nc(-c2cccc(C)c2)c(-c2ccnc(NCc3ccccc3)c2)s1"
  testReadout: "%Inh"
  reportedValue: "0%"

====

# %Inh values compiled below
Test system: ASK2
Construct: gene MAP3K6
Conditions: concentration: 1 μM, replicates: in singlicate; n = 1
testReadout: %Inh (%)

- compound: "CCn1cnc2c(N)ncnc21 [GW345098]"
  reportedValue: 0
- compound: "CCc1ccnc(/C=C/c2n[nH]c3cc(Sc4ccccc4C(=O)NC)ccc23)c1"
  reportedValue: 0
- compound: "O=c1cc(N2CCOCC2)nc2n(Cc3cccc(F)c3)ccn12 [GSK2297430]"
  reportedValue: 6
- compound: "Cc1nnc(-c2ccc3ncc(-c4ccc(S(C)=O)cc4)n3c2)o1 (centres unmarked)"
  reportedValue: 9
- compound: "O=C(NCCNc1ccnc(Nc2ccc(F)cc2)n1)c1cc2ccccc2s1 [GSK1379874]"
  reportedValue: 0
- compound: "Cc1ccc(C(=O)NCC(N)=O)cc1-n1c(C)cc(OCc2ccc(F)cc2F)c(Br)c1=O"
  reportedValue: 0
- compound: "Fc1ccc(-c2ncn(CCCN3CCOCC3)c2-c2cccnc2)cc1 [SB-211743]"
  reportedValue: 0
- compound: "CN(C1=C(c2ccccc2)C(=O)NC1=O)c1ccccc1 [SB-334860]"
  reportedValue: 0
- compound: "NS(=O)(=O)c1cccc(-c2ccc3ncc(N4CCOCC4)nc3c2)c1 [GSK1535721]"
  reportedValue: 0
- compound: "Cc1cccc(-c2nc(-c3ccc(S(C)(=O)=O)cc3)sc2-c2ccncc2)c1"
  reportedValue: 15
- compound: "Cl.Cl.Cl.Fc1ccc(-c2ncn(C3CCNCC3)c2-c2ccnc(Nc3ccccc3)n2)cc1 [SB-238039]"
  reportedValue: 0
